System: OCI-AML5 (Acute Myeloid Leukemia);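 note: after 72 h of two-drug dosing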
run.description: Bliss excess, mean over the matrix (fraction); higher = more synergy
Class field: derived from Bliss excess; ranges bottom end: < -0.02; midrange: ≥ -0.02 and < 0.03; top end: ≥ 0.03

These solved cases illustrate the format of a correct answer.
compound	assigned.label
CCc1c2c(nc3ccc(O)cc13)-c1cc3c(c(=O)n1C2)COC(=O)[C@]3(O)CC [SN-38] + CN(C)CCCOc1ccc(-c2ccc3ncc4c(c3c2)n(C2CCOCC2)c(=O)n4C)cn1 [AZD0156] (first compound max 0.3 µM, 7x7, partner max 1 µM)	bottom end
CCN(CCO)CCCOc1ccc2c(Nc3cc(CC(=O)Nc4cccc(F)c4)[nH]n3)ncnc2c1 [AZD2811] + C[C@@H]1COCCN1C2=NC(=NC(=C2)C3(CC3)[S@](=N)(=O)C)C4=C5C=CNC5=NC=C4 [AZD6738] (first compound max 1 µM, 7x7, partner max 10 µM)	bottom end
CC(=O)c1c(C)c2cnc(Nc3ccc(N4CCNCC4)cn3)nc2n(C2CCCC2)c1=O [Palbociclib] + Cc1c2c(nn1C)CSCc1cc(n(C)n1)CSc1cc(c3ccccc3c1)OCCCc1c(C(=O)O)n(C)c3c-2c(Cl)ccc13 [AZD5991] (first compound max 10 µM, 7x7, partner max 1 µM)	top end

### Prompt Which of the defined bands does the recorded Bliss excess of NC1(C(=O)N[C@@H](CCO)c2ccc(Cl)cc2)CCN(c2ncnc3[nH]ccc23)CC1 [Capivasertib] + C[C@@H]1COCCN1C2=NC(=NC(=C2)C3(CC3)[S@](=N)(=O)C)C4=C5C=CNC5=NC=C4 [AZD6738] (first compound max 10 µM, 7x7, partner max 10 µM) sit within?
### Response midrange

### Prompt Which of the defined bands does the recorded Bliss excess of CN(CCO)CC[C@H](CSc1ccccc1)Nc1ccc(S(=O)(=O)NC(=O)c2ccc(N3CCC([C@@H](O)c4ccccc4-c4ccc(Cl)cc4)CC3)cc2)cc1S(=O)(=O)C(F)(F)F [AZD4320] + C[C@@H]1COCCN1C2=NC(=NC(=C2)C3(CC3)[S@](=N)(=O)C)C4=C5C=CNC5=NC=C4 [AZD6738] (first compound max 1 µM, 7x7, partner max 10 µM) sit within?
### Response midrange

### Prompt Which of the defined bands does the recorded Bliss excess of CC1(C)CCC(CN2CCN(c3ccc(C(=O)NS(=O)(=O)c4ccc(NCC5CCOCC5)c([N+](=O)[O-])c4)c(Oc4cnc5[nH]ccc5c4)c3)CC2)=C(c2ccc(Cl)cc2)C1 [Venetoclax] + C[C@@H]1COCCN1C2=NC(=NC(=C2)C3(CC3)[S@](=N)(=O)C)C4=C5C=CNC5=NC=C4 [AZD6738] (first compound max 1 µM, 7x7, partner max 10 µM) sit within?
### Response top end

### Prompt Which of the defined bands does the recorded Bliss excess of CCN(CCO)CCCOc1ccc2c(Nc3cc(CC(=O)Nc4cccc(F)c4)[nH]n3)ncnc2c1 [AZD2811] + O=C(c1cc(Cc2n[nH]c(=O)c3ccccc23)ccc1F)N1CCN(C(=O)C2CC2)CC1 [Olaparib] (first compound max 1 µM, 7x7, partner max 10 µM) sit within?
### Response bottom end

### Prompt Which of the defined bands does the recorded Bliss excess of CC1(C)CCC(CN2CCN(c3ccc(C(=O)NS(=O)(=O)c4ccc(NCC5CCOCC5)c([N+](=O)[O-])c4)c(Oc4cnc5[nH]ccc5c4)c3)CC2)=C(c2ccc(Cl)cc2)C1 [Venetoclax] + Cn1cnc2c(F)c(Nc3ccc(Br)cc3Cl)c(C(=O)NOCCO)cc21 [Selumetinib] (first compound max 1 µM, 7x7, partner max 3 µM) sit within?
### Response top end

Sourced from the supplement of paper PMC11061612
